The values you see were collected from ChEMBL document CHEMBL1131339.

Tested on: Melanophore
Test: Inhibitory concentration against melatonin-induced pigment aggregation by 50% in Xenopus laevis dermal melanophore cell line
Assay type: functional, cell-based, frog
value.kind: IC50

CCC(=O)NCC1CCCc2c1c1ccccc1n2C (stereo not drawn)	Not Active
CCC(=O)NC1CCc2[nH]c3ccc(OC)cc3c2C1 (stereo not drawn)	Not Active
Cn1c2c(c3ccccc31)C(CNC(=O)C1CC1)CCCC2 (stereo not drawn)	56 µM
CCCC(=O)NCC1CCCCc2c1c1ccccc1n2C (stereo not drawn)	53 µM
Cn1c2c(c3ccccc31)C(CNC(=O)C(F)(F)F)CCCC2 (stereo not drawn)	Not Active

Data request: What does the data say about its IC50? Entry: CCC(=O)NCC1CCCc2c1c1cc(OC)ccc1n2C (stereo not drawn)
Data returned: Not Active

Data request: What does the data say about its IC50? Entry: CCCC(=O)NC1CCc2[nH]c3ccc(OC)cc3c2C1 (stereo not drawn)
Data returned: Not Active

Data request: What does the data say about its IC50? Entry: CCCC(=O)NCC1CCCc2c1c1cc(OC)ccc1n2C (stereo not drawn)
Data returned: Not Active

Data request: What does the data say about its IC50? Entry: COc1ccc2[nH]c3c(c2c1)CC(NC(=O)C(F)(F)F)CC3 (stereo not drawn)
Data returned: Not Active

Data request: What does the data say about its IC50? Entry: Cn1c2c(c3ccccc31)C(CNC(=O)C1CCC1)CC2 (stereo not drawn)
Data returned: 50 µM

Data request: What does the data say about its IC50? Entry: O=C(NC1CCc2[nH]c3ccccc3c2C1)C(F)(F)F (stereo not drawn)
Data returned: 43 µM

Data request: What does the data say about its IC50? Entry: CCCC(=O)NC1CCc2[nH]c3ccccc3c2C1 (stereo not drawn)
Data returned: Not Active

Data request: What does the data say about its IC50? Entry: COc1ccc2c(c1)c1c(n2C)CCCC1CNC(=O)C(F)(F)F (stereo not drawn)
Data returned: Not Active
